Measured pest or weed control at 500 g/ha, listed per entry.
# Tested on: greenhouse red spider mite (Tetranychus urticae)
# assayDetails: Tetranychus urticae spray test, OP-resistant (TETRUR), bean leaf disks
# Type: in vivo
# conditionLabel: Tetranychus urticae, foliar, 144 h, application rate 500 g/ha, after 6 days; read-out: efficacy (spider mites killed)
observedProperty: pest or weed control at 500 g/ha (%)

Cc1cc(F)c(/N=C(/c2ccc(Cl)cc2)N(C)C)cc1[S+]([O-])CC(F)(F)F (stereo not drawn)    90
CCN/C(=N\c1cc(SCC(F)(F)F)c(C)cc1C)c1cccnc1    100
Cc1cc(F)c(N=C(N)CC#N)cc1SCC(F)(F)F    100
Cc1cc(F)c(/N=C(/NC2(C)CC2)C(F)(F)F)cc1SCC(F)(F)F    100
Cc1cc(C)c([S+]([O-])CC(F)(F)F)cc1/N=C(\NC1CC1)c1ccc(Cl)nc1 (stereo not drawn)    90
CN/C(=N\c1cc(SCC(F)(F)F)c(Cl)cc1Cl)c1cccc(Cl)c1    90
CN/C(=N/c1cc(SCC(F)(F)F)c(C)cc1F)c1ccc(C(F)(F)F)nc1    90
CN/C(=N\c1cc([S+]([O-])CC(F)(F)F)c(Cl)cc1C)C(F)(F)F (stereo not drawn)    100
[O-][S+](CC(F)(F)F)c1cc(/N=C(\NC2CC2)c2ccc(Cl)nc2)c(Cl)cc1Cl (stereo not drawn)    100
